Source listed as the OligoGym collection.

We begin with a simple list: items and their reported normalised inhibition (eCFP-eYFP dual reporter).
- System Name: UBE2K; further: test concentration or dose not given here
- Assay Comment: reporter assay of Huesken 2005
- Condition Set: siRNA
Oligonucleotides are given in HELM: sugar(base)linkage, 5' to 3'; d 2'-deoxyribose, r ribose, m 2'-O-methylribose, p phosphate. ss, as = sense and antisense strand
Property Name: normalised inhibition (eCFP-eYFP dual reporter) (%)

>>> assay_result("RNA1{r(A)p.r(U)p.r(C)p.r(C)p.r(U)p.r(A)p.r(A)p.r(U)p.r(A)p.r(U)p.r(U)p.r(A)p.r(G)p.r(U)p.r(U)p.r(C)p.r(C)p.r(G)p.r(U)p.d(T)p.d(T)}|RNA2{r(A)p.r(C)p.r(G)p.r(G)p.r(A)p.r(A)p.r(C)p.r(U)p.r(A)p.r(A)p.r(U)p.r(A)p.r(U)p.r(U)p.r(A)p.r(G)p.r(G)p.r(A)p.r(U)p.d(G)p.d(C)}$$$RNA1{StrandType:ss}|RNA2{StrandType:as}$")
53.2
>>> assay_result("RNA1{r(U)p.r(G)p.r(A)p.r(A)p.r(A)p.r(G)p.r(A)p.r(U)p.r(C)p.r(A)p.r(A)p.r(U)p.r(G)p.r(G)p.r(G)p.r(C)p.r(A)p.r(G)p.r(C)p.d(T)p.d(T)}|RNA2{r(G)p.r(C)p.r(U)p.r(G)p.r(C)p.r(C)p.r(C)p.r(A)p.r(U)p.r(U)p.r(G)p.r(A)p.r(U)p.r(C)p.r(U)p.r(U)p.r(U)p.r(C)p.r(A)p.d(G)p.d(G)}$$$RNA1{StrandType:ss}|RNA2{StrandType:as}$")
57.3
>>> assay_result("RNA1{r(U)p.r(A)p.r(G)p.r(A)p.r(U)p.r(C)p.r(U)p.r(U)p.r(G)p.r(U)p.r(A)p.r(G)p.r(A)p.r(U)p.r(G)p.r(A)p.r(G)p.r(A)p.r(A)p.d(T)p.d(T)}|RNA2{r(U)p.r(U)p.r(C)p.r(U)p.r(C)p.r(A)p.r(U)p.r(C)p.r(U)p.r(A)p.r(C)p.r(A)p.r(A)p.r(G)p.r(A)p.r(U)p.r(C)p.r(U)p.r(A)p.d(C)p.d(T)}$$$RNA1{StrandType:ss}|RNA2{StrandType:as}$")
85.7
